Items are presented alongside their recorded pKi.
# Tested Target: GABA-A receptor; alpha-1/beta-3/gamma-2 (Homo sapiens, UniProt P14867+P18507+P28472)
# Sequence (P14867 whole entry, one chain of several): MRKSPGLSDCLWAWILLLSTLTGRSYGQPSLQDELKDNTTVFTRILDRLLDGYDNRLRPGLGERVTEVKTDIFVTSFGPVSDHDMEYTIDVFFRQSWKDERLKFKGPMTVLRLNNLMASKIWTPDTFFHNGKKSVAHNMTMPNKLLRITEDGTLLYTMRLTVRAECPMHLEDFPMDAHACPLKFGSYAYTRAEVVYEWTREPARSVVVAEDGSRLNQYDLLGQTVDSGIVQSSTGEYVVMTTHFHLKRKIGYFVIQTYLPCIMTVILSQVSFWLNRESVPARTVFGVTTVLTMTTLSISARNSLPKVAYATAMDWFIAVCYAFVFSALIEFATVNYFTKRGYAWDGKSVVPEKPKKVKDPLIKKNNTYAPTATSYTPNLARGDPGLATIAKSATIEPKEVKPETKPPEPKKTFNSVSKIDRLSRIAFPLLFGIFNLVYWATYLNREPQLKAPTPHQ
# Test Protocol: Displacement of [3H]Ro-151788 from recombinant human GABA-Aalpha1 receptor plus beta3gamma2
pKi: −log10 of the molar value.

Chemical Smiles | pKi
Fc1cnccc1-c1cc(-c2ccc(F)c(-c3ncccc3F)c2)cnn1 | 9.05
Fc1cnc(-c2cc(-c3cnnc(-c4ncccc4F)c3)ccc2F)c(F)c1 | 9.40
Fc1ccc(-c2cnnc(-c3c(F)cncc3F)c2)cc1-c1ncccc1F | 9.10
Fc1cnc(-c2cc(-c3cnnc(-c4ccncc4F)c3)ccc2F)c(F)c1 | 8.46
Fc1cnc(-c2cc(-c3cnnc(-c4c(F)cc(F)cc4F)c3)ccc2F)c(F)c1 | 8.59
Fc1ccc(-c2cnnc(-c3ncccc3F)c2)cc1-c1ncccc1F | 9.30
Fc1cnc(-c2cc(-c3ccc(F)c(-c4ncc(F)cc4F)c3)cnn2)c(F)c1 | 8.82
Fc1cnc(-c2cc(-c3cnnc(-c4c(F)cncc4F)c3)ccc2F)c(F)c1 | 8.74
Fc1ccc(-c2cnnc(-c3c(F)cccc3F)c2)cc1-c1ncccc1F | 10.00
Fc1cnc(-c2cc(-c3ccc(F)c(-c4ncccc4F)c3)cnn2)c(F)c1 | 9.30

* * *

# Test Protocol: Oral bioavailability in dog
# Assay type: ADME, organism-based, Canis lupus familiaris
# Cond: in vivo

Chemical Smiles | bioavailability (%)
Fc1cnc(-c2cc(-c3cnnc(-c4c(F)cncc4F)c3)ccc2F)c(F)c1 | 72
Fc1cnc(-c2cc(-c3ccc(F)c(-c4ncc(F)cc4F)c3)cnn2)c(F)c1 | 40

* * *

# Test Protocol: Stability in rat assessed as liver microsomal turnover
# Type: ADME, Microsome
# Cond: liver microsomes, read-out: Stability
Items are presented alongside their recorded metabolised.
Observation Type: metabolised (%)

Chemical Smiles | Observation Type | Reported Relation | Quantitative Result
Fc1cnc(-c2cc(-c3cnnc(-c4c(F)cncc4F)c3)ccc2F)c(F)c1 | metabolised | = | 5
Fc1cnc(-c2cc(-c3cnnc(-c4ccccc4F)c3)ccc2F)c(F)c1 | metabolised | = | 22
Fc1cnc(-c2cc(-c3cnnc(-c4ccncc4F)c3)ccc2F)c(F)c1 | metabolised | = | 23
Fc1cnc(-c2cc(-c3cnnc(-c4ncccc4F)c3)ccc2F)c(F)c1 | metabolised | < | 5
Fc1ccc(-c2cc(-c3ccc(F)c(-c4ncc(F)cc4F)c3)cnn2)c(F)c1 | metabolised | = | 13
Fc1ccc(-c2cnnc(-c3ncccc3F)c2)cc1-c1ncccc1F | metabolised | = | 3
Fc1ccc(-c2cnnc(-c3c(F)cncc3F)c2)cc1-c1ncccc1F | metabolised | = | 9
Fc1cnc(-c2cc(-c3ccc(F)c(-c4ncccc4F)c3)cnn2)c(F)c1 | metabolised | < | 5
Fc1ccccc1-c1cc(-c2ccc(F)c(-c3ncccc3F)c2)cnn1 | metabolised | = | 11
Fc1cnc(-c2cc(-c3cnnc(-c4c(F)cc(F)cc4F)c3)ccc2F)c(F)c1 | metabolised | = | 4

* * *

# Test Protocol: Stability in dog assessed as liver microsomal turnover
# Format: ADME, Canis lupus familiaris
# Cond: liver microsomes, read-out: Stability
# label = Fulfilled if metabolised >= 8% else Not fulfilled

Chemical Smiles | Cat
Fc1ccc(-c2cc(-c3ccc(F)c(-c4ncc(F)cc4F)c3)cnn2)c(F)c1 | Fulfilled
Fc1cnc(-c2cc(-c3cnnc(-c4ccccc4F)c3)ccc2F)c(F)c1 | Fulfilled
Fc1ccc(-c2cnnc(-c3c(F)cncc3F)c2)cc1-c1ncccc1F | Fulfilled
Fc1cnc(-c2cc(-c3cnnc(-c4c(F)cc(F)cc4F)c3)ccc2F)c(F)c1 | Not fulfilled

* * *

# Test Protocol: Plasma clearance in dog
# Assay type: ADME, organism-based, Canis lupus familiaris

Chemical Smiles | clearance [L/h/kg]
Fc1cnc(-c2cc(-c3ccc(F)c(-c4ncc(F)cc4F)c3)cnn2)c(F)c1 | 0.234
Fc1cnc(-c2cc(-c3cnnc(-c4c(F)cncc4F)c3)ccc2F)c(F)c1 | 1.02

* * *

# Test Protocol: Half life in Rhesus monkey
# Type: ADME, organism-based, Macaca mulatta
# Cond: in vivo

Chemical Smiles | half-life / h
Fc1cnc(-c2cc(-c3cnnc(-c4c(F)cncc4F)c3)ccc2F)c(F)c1 | 8.4

* * *

Items are presented alongside their recorded pKi.
# Tested Target: GABA-A receptor; alpha-3/beta-3/gamma-2 (Homo sapiens, UniProt P18507+P28472+P34903)
# Sequence (P18507 whole entry): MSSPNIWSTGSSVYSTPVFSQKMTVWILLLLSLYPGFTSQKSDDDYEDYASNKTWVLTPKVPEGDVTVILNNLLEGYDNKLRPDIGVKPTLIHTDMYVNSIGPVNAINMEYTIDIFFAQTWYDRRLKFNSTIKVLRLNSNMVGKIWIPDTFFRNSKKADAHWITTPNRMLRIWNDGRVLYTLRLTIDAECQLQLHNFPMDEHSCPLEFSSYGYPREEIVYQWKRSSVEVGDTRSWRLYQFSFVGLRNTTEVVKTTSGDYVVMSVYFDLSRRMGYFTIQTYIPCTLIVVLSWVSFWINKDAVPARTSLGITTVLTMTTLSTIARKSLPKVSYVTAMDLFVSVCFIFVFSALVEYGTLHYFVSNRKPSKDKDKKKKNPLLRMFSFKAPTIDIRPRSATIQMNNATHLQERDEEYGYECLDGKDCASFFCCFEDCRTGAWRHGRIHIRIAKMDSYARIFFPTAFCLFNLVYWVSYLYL
# Sequence (P28472 whole entry): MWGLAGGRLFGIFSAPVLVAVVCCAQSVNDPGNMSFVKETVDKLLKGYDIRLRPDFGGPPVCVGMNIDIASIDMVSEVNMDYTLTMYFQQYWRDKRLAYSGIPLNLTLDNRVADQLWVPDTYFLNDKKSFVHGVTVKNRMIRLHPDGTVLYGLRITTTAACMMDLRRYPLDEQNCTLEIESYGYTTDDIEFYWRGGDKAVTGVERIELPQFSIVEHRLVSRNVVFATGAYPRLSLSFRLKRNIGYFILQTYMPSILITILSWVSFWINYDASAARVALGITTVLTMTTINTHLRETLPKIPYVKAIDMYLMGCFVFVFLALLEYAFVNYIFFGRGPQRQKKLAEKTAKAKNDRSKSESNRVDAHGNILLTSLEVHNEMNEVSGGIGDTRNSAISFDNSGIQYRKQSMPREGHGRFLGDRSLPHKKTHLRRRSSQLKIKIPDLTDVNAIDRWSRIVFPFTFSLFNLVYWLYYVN
# Sequence (P34903 whole entry): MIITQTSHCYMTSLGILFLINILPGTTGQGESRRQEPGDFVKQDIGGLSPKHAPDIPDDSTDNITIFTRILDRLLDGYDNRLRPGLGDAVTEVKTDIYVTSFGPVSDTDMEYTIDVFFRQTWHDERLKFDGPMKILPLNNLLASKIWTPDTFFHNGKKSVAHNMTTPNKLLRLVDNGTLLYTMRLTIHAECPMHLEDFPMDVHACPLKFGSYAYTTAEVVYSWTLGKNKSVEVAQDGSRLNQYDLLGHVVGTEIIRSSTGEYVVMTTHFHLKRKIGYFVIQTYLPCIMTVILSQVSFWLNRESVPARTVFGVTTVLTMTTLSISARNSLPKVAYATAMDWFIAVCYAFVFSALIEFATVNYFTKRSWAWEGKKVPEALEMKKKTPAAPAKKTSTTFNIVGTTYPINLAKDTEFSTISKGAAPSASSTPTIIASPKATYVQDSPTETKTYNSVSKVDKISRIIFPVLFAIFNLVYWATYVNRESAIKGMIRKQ
# Test Protocol: Displacement of [3H]Ro-151788 from recombinant human GABA-Aalpha3 receptor plus beta3gamma2
pKi: −log10 of the molar value.

Chemical Smiles | pKi
Fc1cnccc1-c1cc(-c2ccc(F)c(-c3ncccc3F)c2)cnn1 | 8.25
Fc1ccc(-c2cnnc(-c3c(F)cncc3F)c2)cc1-c1ncccc1F | 8.49
Fc1ccc(-c2cnnc(-c3ncccc3F)c2)cc1-c1ncccc1F | 8.85
Fc1cnc(-c2cc(-c3cnnc(-c4c(F)cncc4F)c3)ccc2F)c(F)c1 | 8.20
Fc1cnc(-c2cc(-c3cnnc(-c4ccncc4F)c3)ccc2F)c(F)c1 | 8.09
Fc1cnc(-c2cc(-c3ccc(F)c(-c4ncc(F)cc4F)c3)cnn2)c(F)c1 | 8.07
Fc1cnc(-c2cc(-c3ccc(F)c(-c4ncccc4F)c3)cnn2)c(F)c1 | 8.70
Fc1cnc(-c2cc(-c3cnnc(-c4c(F)cc(F)cc4F)c3)ccc2F)c(F)c1 | 8.30
Fc1cnc(-c2cc(-c3cnnc(-c4ccccc4F)c3)ccc2F)c(F)c1 | 8.77
Fc1cnc(-c2cc(-c3cnnc(-c4ncccc4F)c3)ccc2F)c(F)c1 | 8.77
Fc1ccc(-c2cc(-c3ccc(F)c(-c4ncc(F)cc4F)c3)cnn2)c(F)c1 | 8.51
Fc1ccccc1-c1cc(-c2ccc(F)c(-c3ncccc3F)c2)cnn1 | 9.05
Fc1ccc(-c2cc(-c3ccc(F)c(-c4ncc(F)cc4F)c3)cnn2)cc1 | 8.25
Fc1ccc(-c2cnnc(-c3c(F)cccc3F)c2)cc1-c1ncccc1F | 9.40

* * *

Items are presented alongside their recorded Efficacy.
# Tested Target: GABA-A receptor; alpha-1/beta-3/gamma-2 (Homo sapiens) (UniProt P14867+P18507+P28472)
# Test Protocol: Efficacy against recombinant human GABA-Aalpha1 plus beta-3-gamma-2 expressed in L(tk-) cells by whole cell patch clamp method
# Assay type: functional, cell-based

Chemical Smiles | Efficacy, %
Fc1ccc(-c2cnnc(-c3c(F)cncc3F)c2)cc1-c1ncccc1F | -7
Fc1ccc(-c2cnnc(-c3c(F)cccc3F)c2)cc1-c1ncccc1F | -5
Fc1cnc(-c2cc(-c3cnnc(-c4ccccc4F)c3)ccc2F)c(F)c1 | -20
Fc1ccc(-c2cnnc(-c3ncccc3F)c2)cc1-c1ncccc1F | -30
Fc1cnc(-c2cc(-c3cnnc(-c4ncccc4F)c3)ccc2F)c(F)c1 | -26
Fc1cnc(-c2cc(-c3cnnc(-c4c(F)cncc4F)c3)ccc2F)c(F)c1 | -3
Fc1cnc(-c2cc(-c3ccc(F)c(-c4ncccc4F)c3)cnn2)c(F)c1 | -0.8
Fc1cnccc1-c1cc(-c2ccc(F)c(-c3ncccc3F)c2)cnn1 | -8
Fc1cnc(-c2cc(-c3cnnc(-c4ccncc4F)c3)ccc2F)c(F)c1 | -7
Fc1cnc(-c2cc(-c3ccc(F)c(-c4ncc(F)cc4F)c3)cnn2)c(F)c1 | -7
Fc1cnc(-c2cc(-c3cnnc(-c4c(F)cc(F)cc4F)c3)ccc2F)c(F)c1 | -9
